Just for reference, ChEMBL document CHEMBL1201862 is where these values come from.

system: HL-60; assay: NCI tumour cell line growth inhibition, 48 h
Active and inactive are the calls of the source. Cut-off read from the data, not from the text of the source: active = GI50 up to about 1.1 µM and inactive = higher.
Task for the reader: assign each of the following compounds its reported GI50.

> print(dat)
                                   compound       observed.value
1  Cc1ccc(S(=O)(=O)Nc2nc3ccccc3c(=O)n2C2CCCCC2)cc1   57.9 µM (inactive)
2  COC(=O)c1cc2c(cc1Cl)Sc1nnc(Nc3ccc(C)cc3)n1S2(=O)=O   3.46 µM (inactive)
3    Sc1nnc(-c2ccnc(-c3nnc(S)[nH]3)c2)[nH]1  > 100 µM (inactive)
4  CC1(C)OC2C(O1)[C@H]1OC(C(Cl)(Cl)Cl)=N[C@H]1C(I)[C@H]2N1C(=O)c2ccccc2C1=O (stereo partly specified)   17.9 µM (inactive)
5            O=[N+]([O-])c1ccc2[nH]ncc2c1Cl   29.8 µM (inactive)

Here are 4 compounds. What values of GI50 were reported for them?
1. COc1cc([C@@H]2c3cc4c(cc3[C@@H](NCCCN(C)C)[C@H]3COC(=O)[C@H]23)OCO4)cc(OC)c1O
2. COCCn1cnc2c(Cl)nc(Nc3ccccc3)nc21
3. COc1cc2c(cc1OC)C(C(=O)c1cccc(OC)c1OC)C(=O)N(C)CC2 (stereo unspecified)
4. Cc1ccnc2c1C(=O)C1=C(OC(C)(C)CC1O)C2=O (stereo unspecified)

[A]
1: 0.0447 µM (active); 2: 22.9 µM (inactive); 3: > 100 µM (inactive); 4: 2.41 µM (inactive)

For each of the items listed, what is its GI50?
1. CCc1cn2c(/C=N/N=C(N)N)c(-c3cc(C)c(Cl)cc3Cl)nc2s1
2. COc1cc(C2c3cc4c(cc3[C@@H](Nc3ccc(Oc5ccccc5)cc3)C3COC(=O)[C@H]23)OCO4)cc(OC)c1O (stereo partly specified)
3. CC1(C)OCC(CO)(CO)CO1
4. COc1cc(OC)c(OC)cc1/C=C/c1ccc2ccccc2n1

[A]
1: 1.82 µM (inactive); 2: 0.362 µM (active); 3: > 100 µM (inactive); 4: 3.27 µM (inactive)

Could I get GI50 for every one of these entries?
1. CN(C)CCNC(=O)c1cccc2nc3c(C(=O)NCCN(C)C)cccc3nc12
2. COc1ccc(OCC(=O)O)c2c1CCCC2=O
3. CNN1C(=O)c2c(C)c(C)c(C#N)c(N)c2C1=O

[A]
1. 0.713 µM (active)
2. > 100 µM (inactive)
3. > 100 µM (inactive)
